- target: NS3 (Hepatitis C virus)
- Sequence (A3EZJ3 whole entry): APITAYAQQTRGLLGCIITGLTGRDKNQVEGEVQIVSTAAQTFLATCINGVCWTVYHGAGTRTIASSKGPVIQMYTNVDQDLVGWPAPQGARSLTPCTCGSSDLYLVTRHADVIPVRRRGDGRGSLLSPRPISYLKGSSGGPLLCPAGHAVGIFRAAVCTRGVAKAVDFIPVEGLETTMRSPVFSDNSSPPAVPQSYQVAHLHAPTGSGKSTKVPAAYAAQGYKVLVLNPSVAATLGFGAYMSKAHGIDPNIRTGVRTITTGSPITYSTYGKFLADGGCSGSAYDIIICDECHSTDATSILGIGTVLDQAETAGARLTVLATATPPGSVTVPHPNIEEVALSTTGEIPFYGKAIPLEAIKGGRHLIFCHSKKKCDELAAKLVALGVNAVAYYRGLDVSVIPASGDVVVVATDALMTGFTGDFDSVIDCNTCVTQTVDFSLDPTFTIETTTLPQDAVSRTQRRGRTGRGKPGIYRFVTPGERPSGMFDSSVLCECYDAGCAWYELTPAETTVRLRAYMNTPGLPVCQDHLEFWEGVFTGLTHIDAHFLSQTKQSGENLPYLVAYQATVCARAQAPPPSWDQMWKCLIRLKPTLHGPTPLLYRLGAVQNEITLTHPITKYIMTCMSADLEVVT
- test-details: Binding affinity against Hepatitis C virus NS3 protease
- Set-up: species or system Hepacivirus hominis
quantity-name: Ki (µM)

{"columns": ["given-smiles", "units-symbol", "censoring-qualifier", "recorded-measurement"],
 "data": [
  ["CCCN(NC(=O)[C@H]1CCCN1C(=O)[C@@H](NC(=O)[C@@H](NC(=O)[C@H](CC(=O)O)NC(=O)[C@H](CCC(=O)O)NC(=O)[C@@H](NC(=O)[C@H](CC(=O)O)NC(C)=O)[C@@H](C)O)C(C)C)C(C)C)C(=O)Oc1ccccc1", "µM", "=", 8],
  ["CCN(NC(=O)[C@H]1CCCN1C(=O)[C@@H](NC(=O)[C@@H](NC(=O)[C@H](CC(=O)O)NC(=O)[C@H](CCC(=O)O)NC(=O)[C@@H](NC(=O)[C@H](CC(=O)O)NC(C)=O)[C@@H](C)O)C(C)C)C(C)C)C(=O)Oc1ccc([N+](=O)[O-])cc1", "µM", ">", 100],
  ["CCCN(NC(=O)[C@H]1CCCN1C(=O)[C@@H](NC(=O)[C@@H](NC(=O)[C@H](CC(=O)O)NC(=O)[C@H](CCC(=O)O)NC(=O)[C@@H](NC(=O)[C@H](CC(=O)O)NC(C)=O)[C@@H](C)O)C(C)C)C(C)C)C(=O)CC", "µM", ">", 100],
  ["CCCN(NC(=O)[C@H]1CCCN1C(=O)[C@@H](NC(=O)[C@@H](NC(=O)[C@H](CC(=O)O)NC(=O)[C@H](CCC(=O)O)NC(=O)[C@@H](NC(=O)[C@H](CC(=O)O)NC(C)=O)[C@@H](C)O)C(C)C)C(C)C)C(=O)OCc1ccc([N+](=O)[O-])cc1", "µM", "=", 45],
  ["CCCN(NC(=O)[C@H]1CCCN1C(=O)[C@@H](NC(=O)[C@@H](NC(=O)[C@H](CC(=O)O)NC(=O)[C@H](CCC(=O)O)NC(=O)[C@@H](NC(=O)[C@H](CC(=O)O)NC(C)=O)[C@@H](C)O)C(C)C)C(C)C)C(=O)Sc1ccc(Cl)cc1", "µM", "=", 100],
  ["CCCN(NC(=O)[C@H]1CCCN1C(=O)[C@@H](NC(=O)[C@@H](NC(C)=O)C(C)C)C(C)C)C(=O)Oc1ccc([N+](=O)[O-])cc1", "µM", "=", 100],
  ["CCCN(NC(=O)[C@H]1CCCN1C(=O)[C@@H](NC(=O)[C@@H](NC(=O)[C@H](CC(=O)O)NC(=O)[C@H](CCC(=O)O)NC(=O)[C@@H](NC(=O)[C@H](CC(=O)O)NC(C)=O)[C@@H](C)O)C(C)C)C(C)C)C(=O)N[C@@H](CO)C(=O)N[C@@H](CCSC)C(=O)N[C@@H](CO)C(=O)O", "µM", "=", 200],
  ["CCCN(NC(=O)[C@H]1CCCN1C(=O)[C@@H](NC(=O)[C@@H](NC(=O)[C@H](CC(=O)O)NC(=O)[C@H](CCC(=O)O)NC(=O)[C@@H](NC(=O)[C@@H](N)CC(=O)O)[C@@H](C)O)C(C)C)C(C)C)C(=O)N[C@@H](CO)C(=O)N[C@@H](CCSC)C(=O)N[C@@H](CO)C(=O)N[C@@H](Cc1ccc(O)cc1)C(=O)N[C@H](C(=O)N[C@@H](Cc1c[nH]c2ccccc12)C(=O)N[C@H](C(=O)NCC(=O)N[C@@H](CCCCN)C(=O)O)[C@@H](C)O)[C@@H](C)O", "µM", "=", 20]
]}
